Reference source for all entries: patent US10280170B2

target: Ba/F3 cells containing Ros1 wild-type protein (Homo sapiens, UniProt P08922, cells depend on it, form not given); construct: The background only speaks of 'a number of different unrelated proteins' and names SLC34A2-ROS1 for HCC78 cells; assay: Ba/F3-Ros1 cell proliferation assay, wild-type Ros1; assay type: cell-based, murine; details: without IL-3
Sequence (P08922 whole entry, stated change not applied): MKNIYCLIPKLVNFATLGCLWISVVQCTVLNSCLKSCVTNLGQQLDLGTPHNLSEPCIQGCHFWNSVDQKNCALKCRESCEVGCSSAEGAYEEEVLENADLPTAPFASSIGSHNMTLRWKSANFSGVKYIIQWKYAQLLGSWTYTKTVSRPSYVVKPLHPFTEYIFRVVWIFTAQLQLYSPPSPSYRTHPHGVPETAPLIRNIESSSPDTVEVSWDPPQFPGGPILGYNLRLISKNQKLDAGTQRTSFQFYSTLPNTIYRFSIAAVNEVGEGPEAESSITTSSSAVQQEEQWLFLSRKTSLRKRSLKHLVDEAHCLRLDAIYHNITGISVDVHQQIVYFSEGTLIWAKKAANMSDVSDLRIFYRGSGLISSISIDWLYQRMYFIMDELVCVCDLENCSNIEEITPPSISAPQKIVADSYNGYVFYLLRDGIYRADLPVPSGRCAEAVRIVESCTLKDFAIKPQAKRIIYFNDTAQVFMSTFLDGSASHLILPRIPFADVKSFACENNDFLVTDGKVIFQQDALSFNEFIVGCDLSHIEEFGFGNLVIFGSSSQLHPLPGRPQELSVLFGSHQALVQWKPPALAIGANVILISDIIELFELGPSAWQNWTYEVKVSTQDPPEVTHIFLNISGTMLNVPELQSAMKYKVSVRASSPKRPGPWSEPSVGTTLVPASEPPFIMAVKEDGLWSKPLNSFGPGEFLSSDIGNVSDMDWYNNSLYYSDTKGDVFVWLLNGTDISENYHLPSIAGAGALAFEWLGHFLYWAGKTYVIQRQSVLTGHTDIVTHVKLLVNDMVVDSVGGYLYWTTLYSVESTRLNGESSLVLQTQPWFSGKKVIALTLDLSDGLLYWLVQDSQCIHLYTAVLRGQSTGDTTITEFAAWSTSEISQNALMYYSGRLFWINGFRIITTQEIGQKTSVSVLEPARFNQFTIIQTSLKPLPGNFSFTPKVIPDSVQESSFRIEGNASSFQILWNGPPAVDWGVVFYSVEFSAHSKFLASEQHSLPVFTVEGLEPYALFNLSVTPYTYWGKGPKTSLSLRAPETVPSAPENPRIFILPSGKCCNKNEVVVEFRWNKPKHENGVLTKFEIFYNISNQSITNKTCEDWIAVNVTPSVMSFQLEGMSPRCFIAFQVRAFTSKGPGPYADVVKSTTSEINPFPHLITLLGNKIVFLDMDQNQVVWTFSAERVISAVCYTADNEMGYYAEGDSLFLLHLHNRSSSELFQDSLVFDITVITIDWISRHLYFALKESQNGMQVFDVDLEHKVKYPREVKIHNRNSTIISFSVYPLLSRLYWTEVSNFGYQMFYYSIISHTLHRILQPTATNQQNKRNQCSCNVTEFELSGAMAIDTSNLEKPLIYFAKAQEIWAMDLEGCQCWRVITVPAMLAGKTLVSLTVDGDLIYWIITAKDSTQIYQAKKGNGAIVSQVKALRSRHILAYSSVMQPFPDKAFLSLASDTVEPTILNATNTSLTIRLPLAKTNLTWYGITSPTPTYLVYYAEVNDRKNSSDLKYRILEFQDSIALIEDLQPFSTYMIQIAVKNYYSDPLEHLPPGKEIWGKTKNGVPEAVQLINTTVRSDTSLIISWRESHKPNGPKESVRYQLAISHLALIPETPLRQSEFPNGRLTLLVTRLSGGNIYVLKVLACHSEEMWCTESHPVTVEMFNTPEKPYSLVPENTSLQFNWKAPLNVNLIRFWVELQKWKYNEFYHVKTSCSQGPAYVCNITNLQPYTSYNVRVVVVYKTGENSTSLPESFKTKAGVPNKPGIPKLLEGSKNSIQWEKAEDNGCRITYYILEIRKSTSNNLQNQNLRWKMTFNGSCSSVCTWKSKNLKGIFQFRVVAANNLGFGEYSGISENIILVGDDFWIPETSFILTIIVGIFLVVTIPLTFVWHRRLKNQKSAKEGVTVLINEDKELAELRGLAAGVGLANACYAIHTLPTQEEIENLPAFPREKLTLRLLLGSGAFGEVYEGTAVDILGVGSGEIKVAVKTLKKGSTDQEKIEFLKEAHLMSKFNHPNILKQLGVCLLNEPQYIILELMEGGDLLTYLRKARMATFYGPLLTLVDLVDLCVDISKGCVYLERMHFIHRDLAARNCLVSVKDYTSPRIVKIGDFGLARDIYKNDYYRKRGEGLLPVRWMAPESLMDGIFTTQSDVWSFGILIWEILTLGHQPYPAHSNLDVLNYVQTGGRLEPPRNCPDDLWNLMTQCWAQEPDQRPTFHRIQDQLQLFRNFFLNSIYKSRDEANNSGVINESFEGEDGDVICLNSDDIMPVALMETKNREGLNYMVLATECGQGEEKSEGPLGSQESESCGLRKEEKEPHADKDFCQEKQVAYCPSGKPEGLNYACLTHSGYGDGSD
Exercise: for every item that follows, state its recorded BaF3-ROS1-IL3 pIC50.
One number for each entry.

Known BaF3-ROS1-IL3 pIC50 results, listed for orientation:
INSERT INTO results (compound, readoutvalue) VALUES
  ('CC(O)CN1CCn2nc(-c3ccncc3)c(-c3ccc(OCc4ccc(C5CC5)cc4)cc3)c2C1=O (stereo not shown) [Compound 135]', 7.3),
  ('CC(O)C(=O)N1CCn2nc(-c3ccncc3)c(-c3ccc(OCc4ccc(C(C)C)cc4)cc3)c2C1 (stereo not shown) [Compound 180]', 6.5);

Batch: BaF3-ROS1-IL3 pIC50 for all items listed.
1. O=C1NC2(CC2)Cn2nc(-c3ccncc3)c(-c3ccc(OCc4ccc(C5CC5)cc4)cc3)c21 [Compound 5]
2. CC(C)c1ccc(COc2ccc(-c3c(-c4ccncc4Cl)nn4c3C(=O)NCC4)cc2)cc1 [Compound 154]
3. CC(C)(O)c1ccc(COc2ccc(-c3c(-c4ccncc4)nn4c3C(=O)N(CCO)CC4)cc2)cc1 [Compound 115]
4. N#CC1(c2ccc(COc3ccc(-c4c(-c5ccncc5)nn5c4C(=O)NCC5)cc3)cc2)CC1 [Compound 123]
5. CC(C)c1ccc(COc2cc(F)c(-c3c(-c4ccncc4)nn4c3C(=O)NCC4)cc2F)cc1 [Compound 14]
6. CC(C)c1ccc(COc2ccc(-c3c(-c4ccncc4)nn4c3C(=O)NCC4)c(F)c2F)cc1 [Compound 16]
7. CC(C)(CO)c1ccc(COc2ccc(-c3c(-c4ccncc4)nn4c3C(=O)NCC4)cc2)cc1 [Compound 125]

7.6
6.9
6.3
7.4
7.8
7.4
6.7

Below is a list of compounds. For each, state its recorded BaF3-ROS1-IL3 pIC50.
1. CC(C)Oc1cc(-c2c(-c3ccncc3)nn3c2C(=O)NCC3)ccc1OCc1ccc(C(C)C)cc1 [Compound 37]
2. CC(C)c1ccc(COc2ccc(-c3c(-c4ccncc4)nn4c3C(=O)N(CCO)CC4)c(F)c2)cc1CCO [Compound 205]

[5.4, 7.8]

Quick batch: BaF3-ROS1-IL3 pIC50 for everything below.
1. CC(C)c1ccc(COc2ccc(-c3c(-c4ccncc4)nn4c3C(=O)NCC4)cc2Cl)cc1 [Compound 25]
2. CC(C)c1ccc(COc2ccc(-c3c(-c4ccncc4)nn4c3C(=O)N(C)CC4)cn2)cc1 [Compound 211]
3. c1cc(-c2nn3c(c2-c2ccc(OCc4ccc(C5CC5)cc4)cc2)CNC2(CC2)C3)ccn1 [Compound 171]
4. CC(C)c1ccc(COc2ccc(-c3c(-c4ccncc4)nn4c3C(=O)N(CCO)CC4)cc2)c(F)c1F [Compound 100]
5. CC(C)c1ccc(COc2ccc(-c3c(-c4ccncc4)nn4c3C(=O)N(C)CC4)cc2)cc1 [Compound 48]
6. CC(O)CN1CCn2nc(-c3ccncc3)c(-c3ccc(OCc4ccc(C(C)C)cc4)cc3)c2C1 (stereo not shown) [Compound 191]
7. CC(C)c1ccc(C2Oc3ccc(-c4c(-c5ccncc5)nn5c4C(=O)NCC5)cc3NC2=O)cc1 (stereo not shown) [Compound 231]
8. CC(C)c1ccc(COc2ccc(-c3c(-c4ccncn4)nn4c3C(=O)NCC4)cc2)cc1 [Compound 158]

[6.8, 7.3, 6.2, 6.9, 7.1, 6.9, 6.4, 7.4]

Provide each entry's BaF3-ROS1-IL3 pIC50 from the list below.
1. CC(CO)c1ccc(COc2ccc(-c3c(-c4ccncc4)nn4c3C(=O)N(CCO)CC4)cc2)cc1 (stereo not shown) [Compound 128]
2. COc1cc(-c2c(-c3ccnc(N)c3)nn3c2C(=O)NCC3)ccc1OCc1ccc(C(C)C)cc1 [Compound 149]
3. CC(C)c1ccc(COc2ccc(-c3c(-c4ccncc4)nn4c3C(=O)N(CCN(C)C)CC4)cc2)cc1 [Compound 61]
4. CC(C)c1cc(F)c(COc2ccc(-c3c(-c4ccncc4)nn4c3C(=O)N(CC(O)CO)CC4)cc2)c(F)c1 (stereo not shown) [Compound 95]

[6.6, 7.6, 6.3, 6.8]
